# Necroptosis inhibition assay (Rescue %) 1 μM per record follows
# Test system: FADD−/− Jurkat cells
# procedure_details: Necroptosis inhibition assay, TNF-α-induced necroptosis (CellTiter-Glo 2.0)
# Type: cell-based, human
# setup_conditions: compound 1 μM; TNF-α 15 ng/mL
Hi! Could you send only the number? It should be in %, unit omitted.

• Nc1ncc(-c2cnn(C3CCN(CC4CN(C(=O)COc5ccc6c(c5)C(=O)N(C5CCC(=O)NC5=O)C6=O)CCO4)CC3)c2)nc1C(=O)OC(C(=O)Nc1ccc(F)cc1)c1ccccc1 (stereo not drawn) = 75.1

Would you mind telling me what Necroptosis inhibition assay (Rescue %) 1 μM value was observed for Nc1ncc(-c2cnn(C3CCN(C(=O)CCCCCNC(=O)CNc4cccc5c4C(=O)N(C4CCC(=O)NC4=O)C5=O)CC3)c2)nc1C(=O)O[C@@H](C(=O)Nc1ccc(F)cc1)c1ccccc1 (stereo partly drawn) ?
21.88

Would you mind telling me what Necroptosis inhibition assay (Rescue %) 1 μM value was observed for Nc1ncc(-c2cnn(C3CCN(CCOC4CCN(c5ccc6c(c5)C(=O)N(C5CCC(=O)NC5=O)C6=O)CC4)CC3)c2)nc1C(=O)OC(C(=O)Nc1ccc(F)cc1)c1ccccc1 (stereo not drawn) ?
24.05
